METHOD: Bioavailability comparison in beagles, capsules by intragastric administration, cefdinir concentration in venous blood
Format: in vivo
CONDITION SUMMARY: both sexes, beagle, dog, venous blood, po, 200 mg, capsules containing 200 mg of cefdinir, intragastric administration, 0-10 h
Where a name gives a salt, the structure may show the parent alone.
MEASURE NAME: AUC(0-t) (µg·h/mL)
Numbers only, in µg·h/mL.

INSERT INTO measurements (molecule, result_number) VALUES
  ('C=CC1=C(C(=O)O)N2C(=O)C(NC(=O)/C(=N\O)c3csc(N)n3)C2SC1 (single isomer, unassigned; (-))', 240);

Item under review: C=CC1=C(C(=O)O)N2C(=O)[C@@H](NC(=O)/C(=N\O)c3csc(N)n3)[C@H]2SC1 [Cefdinir potassium hydrogen sulfate] . Reported AUC(0-t)? 261
